From: patent US7657380

Each entry below lists one item and its recorded Fold IC50 vs H3/L3 value.
Biological target: T1, human CD30 (commercial, conjugated to digoxigenin) (human, UniProt P28908 19-379, limits assumed, conjugated to digoxigenin (DIG))
T1 sequence (looked up): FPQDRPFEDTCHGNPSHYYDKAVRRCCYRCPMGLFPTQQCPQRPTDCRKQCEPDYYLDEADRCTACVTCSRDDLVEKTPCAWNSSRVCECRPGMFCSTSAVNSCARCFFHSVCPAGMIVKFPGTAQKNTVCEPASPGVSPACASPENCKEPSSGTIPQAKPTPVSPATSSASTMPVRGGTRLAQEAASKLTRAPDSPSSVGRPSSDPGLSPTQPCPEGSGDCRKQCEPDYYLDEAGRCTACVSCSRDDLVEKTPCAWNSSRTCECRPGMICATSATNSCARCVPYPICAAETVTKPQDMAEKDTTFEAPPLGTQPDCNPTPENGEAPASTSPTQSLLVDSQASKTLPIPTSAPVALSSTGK
Assay: AlphaScreen competition

IN: Reported Fold IC50 vs H3/L3 for AC10 H3/L3.65 (antibody, IgG1, name in Kabat numbering, V domains shown) VH: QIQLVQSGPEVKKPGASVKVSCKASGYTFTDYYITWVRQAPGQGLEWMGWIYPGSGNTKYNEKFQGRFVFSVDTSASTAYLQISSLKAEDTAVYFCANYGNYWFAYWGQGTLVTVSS VL: DIVLTQSPDSLAVSLGERATINCKASQSVDFDGDSYMNWYQQKPGQPPKVLIYAASNLESGIPARFSGSGSGTDFTLTINSLEAEDAATYYCQQSNEDPFTFGGGTKVEIK : what is it?
OUT: 0.34 fold

IN: Also, AC10 H3/L3.3 (antibody, IgG1, name in Kabat numbering, V domains shown) VH: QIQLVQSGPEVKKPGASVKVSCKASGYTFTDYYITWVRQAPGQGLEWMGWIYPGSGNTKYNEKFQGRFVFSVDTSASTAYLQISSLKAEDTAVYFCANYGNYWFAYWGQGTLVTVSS VL: NIVLTQSPDSLAVSLGERATINCKASQSVDFDGDSYMNWYQQKPGQPPKVLIYAASNLESGIPARFSGSGSGTDFTLTINSLEAEDAATYYCQQSNEDPWTFGGGTKVEIK please.
OUT: 1.66 fold

IN: Also, AC10 H3/L3.56 (antibody, IgG1, name in Kabat numbering, V domains shown) VH: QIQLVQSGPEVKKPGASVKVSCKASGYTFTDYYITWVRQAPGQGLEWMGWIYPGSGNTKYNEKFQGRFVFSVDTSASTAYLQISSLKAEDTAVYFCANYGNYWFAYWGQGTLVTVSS VL: DIVLTQSPDSLAVSLGERATINCKASQSVDFDGDSYMNWYQQKPGQPPKVLIYAASNLESGIPARFSGSGSGTDFTLTINSLEAEDAATYYCQQSNNDPWTFGGGTKVEIK please.
OUT: 0.64 fold
